# protocol.text: Oral bioavailability in male Sprague-Dawley rat at 10 mg/kg by LC-MS/MS analysis
# Assay type: ADME, organism-based
# experimental.setup: in vivo
readout.name: bioavailability (%)
API: value field is a number in %; no unit string.

(Q) Any idea what its bioavailability is? The compound is "C[C@@]1(O)CC[C@]23O[C@@]2(C)CC[C@@H]2[C@H](OC(=O)[C@H]2CS(=O)(=O)c2c(Cl)cccc2Cl)[C@@H]13"
(A) 45.1

----------
# protocol.text: AUC (0 to infinity) in male Sprague-Dawley rat at 2 mg/kg, iv by LC-MS/MS analysis
# Format: ADME, organism-based
# experimental.setup: in vivo
readout.name: AUC(0-inf) (ng·h/mL)
Answer in ng·h/mL, number only, no unit symbol.

(Q) Data request, read-out AUC(0-inf), for "C[C@@]1(O)CC[C@]23O[C@@]2(C)CC[C@@H]2[C@H](OC(=O)[C@H]2CS(=O)(=O)c2c(Cl)cccc2Cl)[C@@H]13"
(A) 75.4

----------
# protocol.text: Therapeutic index, ratio of IC50 for cytotoxicity against mouse neutrophils to IC50 for inhibition of fungal curdlan induced PD-L1 expression in mouse neutrophils
# Type: toxicity
# experimental.setup: read-out: Ratio IC50
readout.name: selectivity ratio
Field format: numeric only.

(Q) For CC1=C2CC[C@@](C)(O)[C@@H]2[C@H]2OC(=O)[C@@H](CN(C)C)[C@@H]2CC1 [ACT-001] , what is its reported selectivity ratio?
(A) 1.7

----------
# protocol.text: AUC (0 to t) in male Sprague-Dawley rat at 2 mg/kg, iv by LC-MS/MS analysis
# Assay type: ADME, organism-based
# experimental.setup: in vivo
readout.name: AUC(0-t) (ng·h/mL)
Reply with just the number (in ng·h/mL).

(Q) Bench note: what AUC(0-t) did "C[C@@]1(O)CC[C@]23O[C@@]2(C)CC[C@@H]2[C@H](OC(=O)[C@H]2CS(=O)(=O)c2c(Cl)cccc2Cl)[C@@H]13" show?
(A) 73.9

The reported measurements were obtained from ChEMBL document CHEMBL5543121.
